Recorded IC50 values for a group of compounds are listed next.
Biological target: KRAS G12D-cRAF (Homo sapiens, UniProt P01116, G12D)
Construct: expressed in transfected cells
Sequence (P01116 1-188 isoform P01116-2 G12D): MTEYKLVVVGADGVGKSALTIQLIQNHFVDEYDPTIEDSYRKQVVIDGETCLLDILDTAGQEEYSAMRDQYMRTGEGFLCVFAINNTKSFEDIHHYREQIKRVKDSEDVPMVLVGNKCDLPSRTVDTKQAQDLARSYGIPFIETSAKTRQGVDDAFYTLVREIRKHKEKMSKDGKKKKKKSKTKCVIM
Assay: Cellular KRAS G12D-cRAF Binding Inhibition Assay (NanoBRET, AD293 stable cells)
Format: cell-based
Settings: 3 h incubation, read-out: NanoBRET KRAS G12D
Provide only the numeric value, understood in nM.

Worked examples follow.
>>> readout_number("CC1OCCCn2c(c3c4cc(ccc42)-c2csc(n2)CC(NC(=O)C24CC(C)(C2)C4)C(=O)N2CCCC(N2)C(=O)OCC(C)(C)C3)-c2cc(N3CCN(C)CC3)cnc21 (stereo not drawn)")
5.7
>>> readout_number("CC1OCCCn2c(c3c4cc(ccc42)-c2csc(n2)CC(NC(=O)C2CC2C(F)F)C(=O)N2CCCC(N2)C(=O)OCC(C)(C)C3)-c2cc(N3CCN(C)CC3)cnc21 (stereo not drawn)")
3.14

We now examine a further compound.
Q: Kindly state the measured IC50 obtained for CC1OCCCn2c(c3c4cc(ccc42)-c2csc(n2)CC(NC(=O)C24CC(C)(C2)C4)C(=O)N2CCCC(N2)C(=O)OCC(C)(C)C3)-c2cc(N3CCN(C4CC4)CC3)cnc21 (stereo not drawn) with KRAS G12D-cRAF (Homo sapiens, UniProt P01116, G12D).
A: 15.8

###

Recorded Vd values for a group of compounds are listed next.
Assay: PK Study of Compounds in Mice
Format: in vivo, Female ICR mice
Settings: female, ICR, mouse, whole blood, IV 1 mg/kg (n=3), mean, read-out: Vss
# output: number + unit

>>> result("CC1OCCCn2c(c3c4cc(ccc42)-c2csc(n2)CC(NC(=O)C2C(C)C2C)C(=O)N2NC(C(=O)OCC(C)(C)C3)C3CC2C3)-c2cc(N3CCN(C4COC4)CC3)cnc21 (centres unmarked) [Example 198]")
"4.66 L/kg"

We now examine a further compound.
Q: // lookup Vd for CC1OCCCn2c(c3c4cc(ccc42)-c2csc(n2)CC(NC(=O)C2C(C)C2C)C(=O)N2NC(C(=O)OCC(C)(C)C3)C3CC2C3)-c2cc(N3CCN(C)CC3)cnc21 (centres unmarked) [Example 186]
A: 3.09 L/kg

###

Experiment: PK Study of Compounds in Dogs
Format: in vivo, Beagle dogs
Conditions: both sexes, beagle, dog, whole blood, IV 1 mg/kg (n=3), mean
Reported metric: clearance
# output: number + unit

Q: // lookup clearance for CC1OCCCn2c(c3c4cc(ccc42)-c2csc(n2)CC(NC(=O)C2C(C)C2C)C(=O)N2NC(C(=O)OCC(C)(C)C3)C3CC2C3)-c2cc(N3CCN(C)CC3)cnc21 (stereo not shown)
A: 0.659 mL/min/kg

###

Target: KRAS G12V-cRAF (Homo sapiens, UniProt P01116, G12V)
Construct: expressed in transfected cells
Sequence (P01116 1-188 isoform P01116-2 G12V): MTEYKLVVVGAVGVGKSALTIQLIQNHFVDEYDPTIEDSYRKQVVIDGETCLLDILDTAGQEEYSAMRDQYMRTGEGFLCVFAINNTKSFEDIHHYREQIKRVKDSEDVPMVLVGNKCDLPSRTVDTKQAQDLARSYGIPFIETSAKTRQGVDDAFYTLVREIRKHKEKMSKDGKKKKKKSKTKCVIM
Test: Cellular KRAS G12V-cRAF Binding Inhibition Assay (NanoBRET, AD293 stable cells)
Assay type: cell-based
Settings: 3 h incubation, read-out: NanoBRET KRAS G12V
Reported metric: pIC50
Please treat pIC50 as minus the base-10 logarithm of the molar concentration.

Worked examples follow.
>>> readout_number("CC1OCCCn2c(c3c4cc(ccc42)-c2coc(n2)CC(NC(=O)C2CC2C(F)F)C(=O)N2CCCC(N2)C(=O)OCC(C)(C)C3)-c2cc(N3CCOCC3)cnc21 (centres unmarked)")
8.07
>>> readout_number("COC1CCN(c2cnc3c(c2)-c2c4c5cc(ccc5n2CCCOC3C)-c2csc(n2)CC(NC(=O)C2CC2C(F)F)C(=O)N2CCCC(N2)C(=O)OCC(C)(C)C4)C1 (centres unmarked) [Example 136]")
7.71
>>> readout_number("CC1OCCCn2c(c3c4cc(ccc42)-c2csc(n2)CC(NC(=O)C2CC2C(F)F)C(=O)N2CCCC(N2)C(=O)OCC(C)(C)C3)-c2cc(N3CC(N(C)C)C3)cnc21 (centres unmarked)")
7.64
>>> readout_number("CC1OCCCn2c(c3c4cc(ccc42)-c2csc(n2)CC(NC(=O)C2CC2C(F)F)C(=O)N2CCCC(N2)C(=O)OCC(C)(C)C3)-c2cc(N3CCN(C4CCOCC4)CC3)cnc21 (centres unmarked)")
7.83

Q: // lookup pIC50 for CC1OCCCn2c(c3c4cc(ccc42)-c2csc(n2)CC(NC(=O)C2CC2C(F)F)C(=O)N2CCCC(N2)C(=O)OCC(C)(C)C3)-c2cc(N3CCN(C4CN(C)C4)CC3)cnc21 (centres unmarked)
A: 7.42

###

Experiment: PK Study of Compounds in Dogs
Format: in vivo, Beagle dogs
Settings: both sexes, beagle, dog, whole blood, IV 1 mg/kg (n=3), mean
Reported metric: AUC(0-t) (ng·h/mL)
Provide only the numeric value, understood in ng·h/mL.

Q: // lookup AUC(0-t) for CC1OCCCn2c(c3c4cc(ccc42)-c2csc(n2)CC(NC(=O)C2C(C)C2C)C(=O)N2NC(C(=O)OCC(C)(C)C3)C3CC2C3)-c2cc(N3CCN(C)CC3)cnc21 (stereo not shown)
A: 16600

###

Target: KRAS G12V-cRAF (Homo sapiens, UniProt P01116, G12V)
Construct: expressed in transfected cells
Assay: Cellular KRAS G12V-cRAF Binding Inhibition Assay (NanoBRET, AD293 stable cells)
Assay type: cell-based
Conditions: 3 h incubation, read-out: NanoBRET KRAS G12V
Reported metric: IC50 (nM)
Provide only the numeric value, understood in nM.

Worked examples follow.
>>> readout_number("CC1OCCCn2c(c3c4cc(ccc42)-c2csc(n2)CC(NC(=O)C24CC(C)(C2)C4)C(=O)N2CCCC(N2)C(=O)OCC(C)(C)C3)-c2cc(N3CCOCC3)cnc21 (centres unmarked)")
37.8
>>> readout_number("COC1CCN(c2cnc3c(c2)-c2c4c5cc(ccc5n2CCCOC3C)-c2csc(n2)CC(NC(=O)C2CC2C(F)F)C(=O)N2CCCC(N2)C(=O)OCC(C)(C)C4)C1 (centres unmarked) [Example 135]")
10.6
>>> readout_number("CC1OCCCn2c(c3c4cc(ccc42)-c2csc(n2)CC(NC(=O)C2C(C)C2C)C(=O)N2CCCC(N2)C(=O)OCC(C)(C)C3)-c2cc(N3CC(C)N(C)C(C)C3)cnc21 (centres unmarked) [Example 171]")
3.04

Q: Kindly state the measured IC50 obtained for CC1OCCCn2c(c3c4cc(ccc42)-c2csc(n2)CC(NC(=O)C2C(C)C2C)C(=O)N2CCCC(N2)C(=O)OCC(C)(C)C3)-c2cc(OCCN3CCOCC3)cnc21 (centres unmarked) with KRAS G12V-cRAF (Homo sapiens, UniProt P01116, G12V).
A: 5.06

Q: Kindly state the measured IC50 obtained for CC1OCCCn2c(c3c4cc(ccc42)-c2csc(n2)CC(NC(=O)C2C4COCC42)C(=O)N2NC(C(=O)OCC(C)(C)C3)C3CC2C3)-c2cc(N3CCN(C)CC3)cnc21 (centres unmarked) with KRAS G12V-cRAF (Homo sapiens, UniProt P01116, G12V).
A: 16.3

###

Test: PK Study of Compounds in Rats
Type: in vivo, Male SD rats
Details: male, SD, rat, whole blood, IV 1 mg/kg (n=3), mean, read-out: Vss
Recorded Vd values for a group of molecules are listed next.
# output: number + unit

>>> result("CC1OCCCn2c(c3c4cc(ccc42)-c2csc(n2)CC(NC(=O)C2C(C)C2C)C(=O)N2NC(C(=O)OCC(C)(C)C3)C3CC2C3)-c2cc(N3CCN(C)CC3)cnc21 (stereo not drawn)")
"1.2 L/kg"
>>> result("CC1OCCCn2c(c3c4cc(ccc42)-c2csc(n2)CC(NC(=O)C2C4COCC42)C(=O)N2NC(C(=O)OCC(C)(C)C3)C3CC2C3)-c2cc(N3CCN(C)CC3)cnc21 (stereo not drawn)")
"1.11 L/kg"

We now examine a further molecule.
Q: // lookup Vd for CC1OCCCn2c(c3c4cc(ccc42)-c2csc(n2)CC(NC(=O)C2C(C)C2C)C(=O)N2NC(C(=O)OCC(C)(C)C3)C3CC2C3)-c2cc(N3CCN(C4COC4)CC3)cnc21 (stereo not drawn)
A: 1.08 L/kg

###

Recorded pIC50 values for a group of compounds are listed next.
Biological target: KRAS G12D-cRAF (Homo sapiens, UniProt P01116, G12D)
Construct: expressed in transfected cells
Experiment: Cellular KRAS G12D-cRAF Binding Inhibition Assay (NanoBRET, AD293 stable cells)
Assay type: cell-based
Conditions: NanoBRET KRAS G12D, 3 h incubation
Please treat pIC50 as minus the base-10 logarithm of the molar concentration.

Worked examples follow.
>>> readout_number("C[C@@H]1OCCCn2c(c3c4cc(ccc42)-c2csc(n2)C[C@H](NC(=O)[C@H]2C[C@@H]2C)C(=O)N2CCC[C@H](N2)C(=O)OCC(C)(C)C3)-c2cc(N3CCN(C)CC3)cnc21")
8.21
>>> readout_number("C[C@H]1C[C@@H]1C(=O)N[C@H]1Cc2nc(cs2)-c2ccc3c(c2)c(c2n3CCCOCc3ncc(N4CCN(C)CC4)cc3-2)CC(C)(C)COC(=O)[C@@H]2CCCN(N2)C1=O")
7.54
>>> readout_number("C[C@@H]1OCC[C@H](C)n2c(c3c4cc(ccc42)-c2csc(n2)C[C@H](NC(=O)[C@H]2C[C@@H]2C)C(=O)N2CCC[C@H](N2)C(=O)OCC(C)(C)C3)-c2cc(N3CCN(C)CC3)cnc21")
7.59

We now examine a further compound.
Q: // lookup pIC50 for C[C@H]1C[C@@H]1C(=O)N[C@H]1Cc2nc(cs2)-c2ccc3c(c2)c(c2n3[C@@H](C)CCOCc3ncc(N4CCN(C)CC4)cc3-2)CC(C)(C)COC(=O)[C@@H]2CCCN(N2)C1=O
A: 6.81
